I'd be grateful if you could share measured Log (Fold Change) for these entries.
- Tested on: human HL60 cells
- protocolSummary: SWATH-MS proteomics, differential protein representation, akirin2 KO vs WT HL60 cells
- Format: cell-based
- conditionDetails: SWATH-MS, akirin2 KO vs WT HL60 cells; sheet "Under-represented in KO"
Give bare numbers.

{"molecule": "sp¦Q9HAV0¦GBB4_HUMAN (protein, UniProt Q9HAV0 2-340, looked up) Guanine nucleotide-binding …: SELEQLRQEAEQLRNQIQDARKACNDATLVQITSNMDSVGRIQMRTRRTLRGHLAKIYAMHWGYDSRLLVSASQDGKLIIWDSYTTNKMHAIPLRSSWVMTCAYAPSGNYVACGGLDNICSIYNLKTREGNVRVSRELPGHTGYLSCCRFLDDSQIVTSSGDTTCALWDIETAQQTTTFTGHSGDVMSLSLSPDMRTFVSGACDASSKLWDIRDGMCRQSFTGHVSDINAVSFFPNGYAFATGSDDATCRLFDLRADQELLLYSHDNIICGITSVAFSKSGRLLLAGYDDFNCNVWDTLKGDRAGVLAGHDNRVSCLGVTDDGMAVATGSWDSFLRIWN", "recordedValue": -0.1151}
{"molecule": "sp¦Q96E11¦RRFM_HUMAN (protein, UniProt Q96E11 56-262, looked up) Ribosome-recycling factor, …: ATKKAKAKGKGQSQTRVNINAALVEDIINLEEVNEEMKSVIEALKDNFNKTLNIRTSPGSLDKIAVVTADGKLALNQISQISMKSPQLILVNMASFPECTAAAIKAIRESGMNLNPEVEGTLIRVPIPQVTREHREMLVKLAKQNTNKAKDSLRKVRTNSMNKLKKSKDTVSEDTIRLIEKQISQMADDTVAELDRHLAVKTKELLG", "recordedValue": -0.1008}
{"molecule": "sp¦Q15006¦EMC2_HUMAN (protein, UniProt Q15006 2-297, looked up) ER membrane protein complex …: AKVSELYDVTWEEMRDKMRKWREENSRNSEQIVEVGEELINEYASKLGDDIWIIYEQVMIAALDYGRDDLALFCLQELRRQFPGSHRVKRLTGMRFEAMERYDDAIQLYDRILQEDPTNTAARKRKIAIRKAQGKNVEAIRELNEYLEQFVGDQEAWHELAELYINEHDYAKAAFCLEELMMTNPHNHLYCQQYAEVKYTQGGLENLELSRKYFAQALKLNNRNMRALFGLYMSASHIASNPKASAKTKKDNMKYASWAASQINRAYQFAGRSKKETKYSLKAVEDMLETLQITQS", "recordedValue": -0.1017}

Find the measured Log (Fold Change) of sp¦Q9H2U2¦IPYR2_HUMAN (protein, UniProt Q9H2U2 33-334, looked up) Inorganic pyrophosphatase 2, …: ALYHTEERGQPCSQNYRLFFKNVTGHYISPFHDIPLKVNSKEENGIPMKKARNDEYENLFNMIVEIPRWTNAKMEIATKEPMNPIKQYVKDGKLRYVANIFPYKGYIWNYGTLPQTWEDPHEKDKSTNCFGDNDPIDVCEIGSKILSCGEVIHVKILGILALIDEGETDWKLIAINANDPEASKFHDIDDVKKFKPGYLEATLNWFRLYKVPDGKPENQFAFNGEFKNKAFALEVIKSTHQCWKALLMKKCNGGAINCTNVQISDSPFRCTQEEARSLVESVSSSPNKESNEEEQVWHFLGK and report it.
-0.1192

Cited source: paper PMC8298264
